# measured_target: human GlyT1c transporter (Homo sapiens (Human))
# Sequence (P48067 whole entry): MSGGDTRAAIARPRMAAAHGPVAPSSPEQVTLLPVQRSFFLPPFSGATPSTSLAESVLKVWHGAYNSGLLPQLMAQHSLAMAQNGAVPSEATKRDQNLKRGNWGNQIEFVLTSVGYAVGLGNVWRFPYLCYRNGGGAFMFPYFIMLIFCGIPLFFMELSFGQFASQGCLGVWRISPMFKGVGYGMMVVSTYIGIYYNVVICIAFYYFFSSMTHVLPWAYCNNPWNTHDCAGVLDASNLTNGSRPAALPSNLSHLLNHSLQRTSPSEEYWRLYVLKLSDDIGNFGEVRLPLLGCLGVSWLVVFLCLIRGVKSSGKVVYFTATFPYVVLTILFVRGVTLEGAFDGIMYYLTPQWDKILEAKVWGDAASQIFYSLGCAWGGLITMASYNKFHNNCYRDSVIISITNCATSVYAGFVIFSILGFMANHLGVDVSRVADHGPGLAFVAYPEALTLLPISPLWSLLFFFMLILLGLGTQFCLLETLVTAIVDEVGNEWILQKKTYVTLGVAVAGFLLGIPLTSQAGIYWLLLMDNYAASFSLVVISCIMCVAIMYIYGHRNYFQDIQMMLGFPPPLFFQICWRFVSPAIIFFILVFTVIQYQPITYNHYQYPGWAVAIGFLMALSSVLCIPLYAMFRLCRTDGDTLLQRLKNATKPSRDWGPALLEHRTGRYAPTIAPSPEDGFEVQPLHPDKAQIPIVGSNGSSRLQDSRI
# method: Radioligand binding assay using recombinant CHO cell membranes expressing human GlyT1
# measurement_setup: read-out: radioligand binding Kiapp
The following molecules are listed with their measured Ki values.

>>> data_value("Cn1cnc(S(=O)(=O)N2CCc3ccc(C(CN)Cc4ccccc4)cc3C2)c1 (centres unmarked)")
"≤ 10 µM"

Now for another entry.
[in] Name the recorded Ki for Cn1cc(S(=O)(=O)N2CCc3ccc(C(CN)Cc4ccccc4)cc3C2)cn1 (centres unmarked) .
[out] ≤ 10 µM
